PBM E-score values for the sequences below.
assay_system: Upc2 (UniProt Q12151)
Sequence: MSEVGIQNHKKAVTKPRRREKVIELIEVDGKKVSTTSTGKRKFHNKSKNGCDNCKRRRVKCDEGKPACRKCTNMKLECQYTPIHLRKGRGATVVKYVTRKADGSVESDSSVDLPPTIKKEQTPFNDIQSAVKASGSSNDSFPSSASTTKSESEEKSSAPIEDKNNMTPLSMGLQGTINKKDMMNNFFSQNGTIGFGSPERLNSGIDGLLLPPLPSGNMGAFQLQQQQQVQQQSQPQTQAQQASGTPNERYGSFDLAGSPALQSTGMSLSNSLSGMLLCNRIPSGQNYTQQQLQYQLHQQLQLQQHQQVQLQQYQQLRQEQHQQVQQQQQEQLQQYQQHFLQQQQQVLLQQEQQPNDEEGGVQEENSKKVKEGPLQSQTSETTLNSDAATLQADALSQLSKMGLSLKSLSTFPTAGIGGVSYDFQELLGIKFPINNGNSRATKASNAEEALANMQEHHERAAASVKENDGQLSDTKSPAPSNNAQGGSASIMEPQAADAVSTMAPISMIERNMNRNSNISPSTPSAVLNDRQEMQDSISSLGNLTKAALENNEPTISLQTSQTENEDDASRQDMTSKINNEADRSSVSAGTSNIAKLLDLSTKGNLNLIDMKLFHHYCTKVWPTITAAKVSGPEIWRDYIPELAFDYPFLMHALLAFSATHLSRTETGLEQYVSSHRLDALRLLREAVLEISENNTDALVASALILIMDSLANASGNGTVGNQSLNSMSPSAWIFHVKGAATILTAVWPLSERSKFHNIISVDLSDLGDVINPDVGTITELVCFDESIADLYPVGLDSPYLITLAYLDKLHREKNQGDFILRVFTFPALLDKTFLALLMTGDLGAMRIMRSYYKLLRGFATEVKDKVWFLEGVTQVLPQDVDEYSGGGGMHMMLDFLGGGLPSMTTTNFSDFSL
assay_procedure: PBM E-score (8-mer binding enrichment) (E-score (-0.5 to 0.5)); higher = stronger / more preferred TF binding
conditions: protein concentration: 200 nM; construct: GST-full length
Whole data set: some 33,000 sequences, median “E-score (-0.5 to 0.5)” near -0.043, cut for the highest 2% near 0.37. This excerpt belongs to a sample that is enriched for the highest values.
measurement_name: PBM E-score

>>> measured("GACGATAC")
0.124
>>> measured("ACGTATAG")
0.433
>>> measured("CGGACGAG")
-0.165
>>> measured("CCGTATCG")
0.319
>>> measured("GTCGAGTA")
0.0357
>>> measured("CCTTAGGC")
-0.0987
>>> measured("GTGTATAA")
0.138
>>> measured("AAACGGAC")
0.337
>>> measured("AGTACGAC")
0.409
>>> measured("CCGTATAC")
0.475
>>> measured("AACGATAC")
0.413
>>> measured("CGCGTTTC")
0.0838
>>> measured("ATTTCAGG")
-0.0274
>>> measured("CGCAGTCA")
-0.228
>>> measured("GCGGTATA")
0.151
>>> measured("GCCGTAGA")
0.189
>>> measured("CCCGTATC")
0.339
>>> measured("AGCGATAA")
0.0894
>>> measured("CACCCTTC")
-0.0111
>>> measured("AGGTATAT")
-0.0562
>>> measured("GCTGTGAC")
0.111
>>> measured("CCTACTCC")
-0.318
>>> measured("AAGGCACC")
-0.24
>>> measured("GAGTATAC")
0.315
>>> measured("CGGGGTCA")
0.117
>>> measured("GCGTATAA")
0.444
>>> measured("ATTACGTG")
-0.118
>>> measured("ACCGTAAG")
0.185
>>> measured("TCTCTCCA")
-0.118
>>> measured("AAACGGGC")
0.395
>>> measured("AACGATAT")
0.39
>>> measured("AGCGATAT")
0.206
>>> measured("ATAGTTTG")
-0.0286
>>> measured("CACGATAG")
-0.187
>>> measured("GCGTATTA")
0.0994
>>> measured("ACATCGTA")
0.425
>>> measured("AAACGGAG")
0.34
>>> measured("ATAGATTC")
-0.12
>>> measured("ATCGATCC")
-0.00332
>>> measured("ACCGATAG")
-0.0483
>>> measured("CATTTTTC")
0.0327
>>> measured("CCCGTAGA")
-0.00639
>>> measured("ATGTATAC")
0.263
>>> measured("GAACGGGC")
0.291
>>> measured("TAACGGGA")
0.0733
>>> measured("GAAGTACC")
0.114
>>> measured("AAACGGAT")
0.37
>>> measured("CCTGAAGC")
-0.175
>>> measured("ATTACGAC")
0.348
>>> measured("ATCGTTTC")
0.401
>>> measured("CAACGGGC")
0.00552
>>> measured("ACTTATTG")
-0.116
>>> measured("CCGAGGGC")
0.094
>>> measured("AGCGTTTC")
0.0667
>>> measured("CGAATTCA")
0.0713
>>> measured("TAATTGGA")
-0.00998
>>> measured("AAGTATAC")
0.306
>>> measured("AGTACGCC")
-0.0728
>>> measured("CTGTATAC")
0.281
>>> measured("ACGACCGC")
0.359
>>> measured("AGAGCATA")
-0.0221
>>> measured("GCATCGAA")
0.00261
>>> measured("AGCTTTTA")
0.163
>>> measured("AGTGTCAG")
-0.0575
>>> measured("AGCTTATA")
0.0662
>>> measured("GCCGTATA")
0.48
>>> measured("GAACGGGA")
0.238
>>> measured("ACGTATAT")
0.404
>>> measured("CTCGTTTC")
0.452
>>> measured("AAACGGGG")
0.398
>>> measured("AATACTAG")
0.00488
>>> measured("GGTACGAA")
0.459
>>> measured("TCGAGAGA")
0.0401
>>> measured("ACCGTAGA")
0.178
>>> measured("ACGTATCG")
0.22
>>> measured("ATAGTTTC")
-0.0466
>>> measured("ATAAGATA")
0.146
>>> measured("CGTTCGGA")
0.265
>>> measured("AGTTGATA")
-0.0653
>>> measured("AGCGTTTG")
0.149
>>> measured("GGTTCGAA")
0.0921
>>> measured("ATAGTCTG")
-0.124
>>> measured("CAACGGGG")
-0.0318
>>> measured("CCCGTATA")
0.479
>>> measured("CCGTATGC")
0.356
>>> measured("GTCGGTTA")
0.337
>>> measured("CCGTATCC")
0.331
>>> measured("ATCGGTTA")
0.333
>>> measured("ACGTATAC")
0.445
>>> measured("ACTGTCCA")
-0.0712
>>> measured("ACGTATGA")
0.243

----------
assay_system: Upc2 (UniProt Q12151)
Sequence: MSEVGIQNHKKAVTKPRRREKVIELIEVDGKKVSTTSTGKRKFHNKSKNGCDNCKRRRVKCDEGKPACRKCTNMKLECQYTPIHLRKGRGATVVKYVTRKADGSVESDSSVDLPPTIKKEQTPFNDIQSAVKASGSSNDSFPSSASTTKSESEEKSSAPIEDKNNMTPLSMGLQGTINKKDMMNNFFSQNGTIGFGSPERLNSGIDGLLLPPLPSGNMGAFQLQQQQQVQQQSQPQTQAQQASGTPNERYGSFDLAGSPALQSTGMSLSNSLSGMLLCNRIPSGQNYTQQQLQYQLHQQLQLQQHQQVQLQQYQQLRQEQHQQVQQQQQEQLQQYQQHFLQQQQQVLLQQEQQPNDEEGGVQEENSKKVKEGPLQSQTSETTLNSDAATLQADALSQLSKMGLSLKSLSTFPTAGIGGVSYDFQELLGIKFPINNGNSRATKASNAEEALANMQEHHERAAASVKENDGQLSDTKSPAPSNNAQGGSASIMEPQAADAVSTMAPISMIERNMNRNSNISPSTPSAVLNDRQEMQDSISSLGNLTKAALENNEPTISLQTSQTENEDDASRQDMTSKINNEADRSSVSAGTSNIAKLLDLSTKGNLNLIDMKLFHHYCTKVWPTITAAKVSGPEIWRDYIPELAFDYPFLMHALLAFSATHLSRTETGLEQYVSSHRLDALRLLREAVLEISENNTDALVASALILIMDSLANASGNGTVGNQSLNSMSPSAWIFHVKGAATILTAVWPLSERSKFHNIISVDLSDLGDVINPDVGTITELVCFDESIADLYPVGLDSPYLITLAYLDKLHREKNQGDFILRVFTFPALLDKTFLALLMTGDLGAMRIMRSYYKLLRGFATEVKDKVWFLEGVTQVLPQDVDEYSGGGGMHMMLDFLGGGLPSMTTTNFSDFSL
assay_procedure: PBM E-score (8-mer binding enrichment) (E-score (-0.5 to 0.5)); higher = stronger / more preferred TF binding
conditions: protein concentration: 200 nM; construct: GST-full length
Whole data set: some 33,000 sequences, median “E-score (-0.5 to 0.5)” near -0.043, cut for the highest 2% near 0.37. The sample as a whole holds a higher share of the highest values than the screen did.
PBM E-score values for the sequences below.
measurement_name: PBM E-score

>>> measured("CATCGTTA")
0.324
>>> measured("ACACCATC")
-0.205
>>> measured("CTGAAGAA")
-0.299
>>> measured("ACGTTGCG")
0.0848
>>> measured("GTGTACCA")
0.0546
>>> measured("GGCGGGTA")
-0.00895
>>> measured("CGTGCTTC")
0.014
>>> measured("GTGTACGA")
0.479
>>> measured("ATCTTCCG")
0.168
>>> measured("GATTGTGA")
-0.112
>>> measured("AGAGTGGG")
0.0465
>>> measured("AATCGTTG")
0.142
>>> measured("GACCCGAA")
-0.0162
>>> measured("AAATTTAA")
0.184
>>> measured("GCACCGAA")
0.0996
>>> measured("CGACCAGA")
0.0386
>>> measured("GCTCATCA")
-0.195
>>> measured("CTTTCGTA")
0.416
>>> measured("CGCCTGTA")
-0.0476
>>> measured("CATCGTGC")
0.054
>>> measured("GGACCTTA")
0.00047
>>> measured("AGCCTTGC")
-0.0435
